Target: BAK (Homo sapiens)
Sequence (Q16611 15-186): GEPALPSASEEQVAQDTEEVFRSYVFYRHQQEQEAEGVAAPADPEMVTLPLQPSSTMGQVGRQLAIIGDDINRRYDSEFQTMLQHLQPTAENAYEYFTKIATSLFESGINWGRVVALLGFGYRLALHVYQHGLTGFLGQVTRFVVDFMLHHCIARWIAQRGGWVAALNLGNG
Assay: ligand-based 1D-NMR
Type: binding
pIC50: −log10 of the molar value.
quantity kind: pIC50

line_notation=Cc1ccc(Cl)c2sc(N)nc12 quantity_kind=pIC50 reported=3.24

###

Target: BAK (Homo sapiens)
Experiment: ligand-based 1D-NMR, […] 2D-NMR titration, competitive TR-FRET, nanoDSF
Format: binding
pIC50: −log10 of the molar value.
quantity kind: pIC50

line_notation=Cc1ccc(C)c2sc(N)nc12 reported=2.71

Source listed as paper PMC9485059.
